Molecular target: T1, TNF-beta (human, UniProt P01374 35-205)
T1 construct: also called TNFβ; Tumour Necrosis Factor-beta
T1 sequence (looked up): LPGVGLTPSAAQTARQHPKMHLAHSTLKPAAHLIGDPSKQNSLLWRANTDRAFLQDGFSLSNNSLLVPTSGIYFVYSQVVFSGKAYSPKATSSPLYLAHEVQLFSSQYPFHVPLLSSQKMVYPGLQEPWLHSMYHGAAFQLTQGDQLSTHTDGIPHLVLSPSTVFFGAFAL
Assay: phage ELISA
endpointName: binding result

{"binder": "I037E07 (scFv) scFv: QVQLVQSGAEVKKPGASVKVSCKASGYTFTNYGITWVRQAPGQGLEWMGWISAYNGNRNYAQKLQGRVTMTTDTSTSTAYMELRSLRSDDTAVYYCVRDGIDILLVPAALMDVWGRGTMVTVSSGGGGSGGGGSGGGGSQSVLTQPASVSGSPGQSITISCTGTSSDVGGYNYVSWYQQHPGKAPKLMIYEGSKRPSGVSNRFSGSKSGNTASLTISGLQAEDEADYYCSSYTTRSTRVFGGGTKLTVLG", "observedValue": "no binding"}
{"binder": "I078H08 (scFv) scFv: QVQLVQSAAEVKKPGASVKVSCKASGYTFTSYGISWVRQAPGQGLEWMGWISAYNGNTNYAQKLQGRVTMTTDTSTSTAYMELRSLRSDDTAVYYCARVYYDILTGYNLFFDYWGRGTTVTVSSGGGGSGGGGSGGGGSQSVLTQPASVSGSPGQSITISCTGTSSDVGGYNYVSWYQQHPGKAPKLMIYEGSKRPSGVSNRFSGSKSGNTASLTISGLQAEDEADYYCSSYTTRSTRVFGGGTKLTVLG", "observedValue": "no binding"}
{"binder": "I007B03 (scFv) scFv: GVQLQQSGAEVKKPGSSVKVSCKASGGTFNTSGITWVRQAPGQGLEWMGWMNPNTGDTAYAQEFQGRVIMTRDTSISTAYMELSSLRSEDTAVYYCARDGSYDILTGYYIDNYMDVWGQGTMVTVSSGGGGSGGGGSGGGGSQSVLTQPASVSGSPGQSITISCTGTSSDVGGYNYVSWYQQHPGKAPKLMIYEGSKRPSGVSNRFSGSKSGNTASLTISGLQAEDEADYYCSSYTTRSTRVFGGGTKLTVLG", "observedValue": "no binding"}
